assay-explanation: S. cerevisiae growth inhibition in permissive medium (OD615), pilot counter-assay for S. cerevisiae lifespan shortening project, permissive growth control (AID 705)
stated-conditions: OD615, 24 h, at 10 µM, active compounds read high
Quick reference: growth inhibition of the listed items.
value-kind: growth inhibition (%)

>>> df
                                    molecule  measurement_units  obs_value
 0  CCCCCn1c(=O)c(C(=O)Nc2ccncc2)c(O)c2ccccc21                  %       92.1
 1      COc1ccccc1N=Cc1c(O)n(C)c(=O)n(C)c1=O                  %      -6.69
 2  COc1cc2c(cc1OC)C(C(=O)N1CCC3(CC1)OCCO3)C(c1ccccc1F)N(C)C2=O (stereo unspecified)                  %      -3.76
 3  COc1ccc(C2SCC(=O)Nc3c2c(=O)[nH]n3C2CCCCCC2)cc1OC (stereo unspecified)                  %      -18.6
 4  CCOC(=O)C(C)Oc1cc(C)cc2oc(=O)c3c(c12)CCCC3 (stereo unspecified)                  %      -9.51
 5  O=C1CCCC2=C1C(c1cccnc1)Nc1ccccc1N2 (stereo unspecified)                  %      -12.3
 6  CCCC(C)C1C(C#N)=C(N)Oc2c1c(=O)oc1ccccc21 (stereo unspecified)                  %      -16.8
 7   CCCCNC(=O)c1c(N)n(CCCOC)c2nc3ccccc3nc12                  %       1.92
 8  CC12CN3CC(C)(CN(C1)C3c1ccco1)C2=O (stereo unspecified)                  %      -8.88
 9  CCOc1ccc(C2SCC(=O)Nc3c2c(=O)[nH]n3C2CCCCCC2)cc1 (stereo unspecified)                  %      -17.8
10           Cc1cc(Br)ccc1N1C(=O)CC(=O)NC1=O                  %      -12.1

====

measured-target: Receptor tyrosine-protein kinase erbB-2 (Homo sapiens) (UniProt P04626)
Sequence (P04626 whole entry, looked up): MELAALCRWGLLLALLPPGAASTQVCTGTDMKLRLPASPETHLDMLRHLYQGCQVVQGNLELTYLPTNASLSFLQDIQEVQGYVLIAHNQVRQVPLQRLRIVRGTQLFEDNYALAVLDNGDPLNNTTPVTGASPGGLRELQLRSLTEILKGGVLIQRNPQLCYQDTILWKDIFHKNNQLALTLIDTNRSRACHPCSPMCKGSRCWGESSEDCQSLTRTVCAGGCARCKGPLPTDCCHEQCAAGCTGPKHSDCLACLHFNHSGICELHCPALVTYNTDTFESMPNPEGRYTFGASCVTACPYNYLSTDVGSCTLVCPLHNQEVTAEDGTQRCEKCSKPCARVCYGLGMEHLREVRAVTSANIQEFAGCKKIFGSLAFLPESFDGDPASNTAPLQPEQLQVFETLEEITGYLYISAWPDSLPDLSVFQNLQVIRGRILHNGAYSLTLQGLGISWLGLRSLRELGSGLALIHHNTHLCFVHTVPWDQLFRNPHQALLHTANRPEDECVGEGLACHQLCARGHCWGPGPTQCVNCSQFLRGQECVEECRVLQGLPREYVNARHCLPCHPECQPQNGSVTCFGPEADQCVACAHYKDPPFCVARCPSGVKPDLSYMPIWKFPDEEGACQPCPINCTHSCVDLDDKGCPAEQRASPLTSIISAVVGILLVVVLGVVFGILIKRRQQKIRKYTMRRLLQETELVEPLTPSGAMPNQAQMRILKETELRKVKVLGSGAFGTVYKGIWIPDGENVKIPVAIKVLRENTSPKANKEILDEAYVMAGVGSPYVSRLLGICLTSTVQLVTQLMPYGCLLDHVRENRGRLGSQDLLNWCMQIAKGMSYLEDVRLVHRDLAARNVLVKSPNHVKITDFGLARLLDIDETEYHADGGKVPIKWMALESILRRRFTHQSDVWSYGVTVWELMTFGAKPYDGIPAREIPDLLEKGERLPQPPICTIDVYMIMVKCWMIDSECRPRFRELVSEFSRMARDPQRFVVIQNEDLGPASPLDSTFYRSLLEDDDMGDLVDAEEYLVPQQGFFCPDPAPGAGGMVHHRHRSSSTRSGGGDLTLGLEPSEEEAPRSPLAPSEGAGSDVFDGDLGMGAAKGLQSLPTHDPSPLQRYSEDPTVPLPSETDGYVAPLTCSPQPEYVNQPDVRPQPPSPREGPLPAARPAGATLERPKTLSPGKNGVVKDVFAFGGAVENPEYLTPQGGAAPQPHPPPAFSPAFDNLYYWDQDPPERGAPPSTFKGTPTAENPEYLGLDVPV
assay-explanation: Her2 expression decrease, cell viability multiplex – SKBR3 breast tumor cells, AlphaScreen, ATP viability, primary screen (AID 461);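 note: lower value means less Her2 protein in the cells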
stated-conditions: 18-24 h, at 10 µM, active compounds read low
The source made the active and inactive calls.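 The calls were made as follows: active = Her2 level under about 52% in both replicate screens, with viability over 70% of control (limit read from the data); inconclusive = Her2 under the limit in one screen only, or viability under 70%; inactive = Her2 level above the set limit.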
value-kind: Her2 level

>>> df
                                   compound         obs_value
0         CN1CCC(N(C)c2ncnc3ccc(Br)cc23)CC1  99.5% (inactive)
1  C[N+]1(C)CCc2cc3c(cc2[C@H]1[C@@H]1OC(=O)c2c1ccc1c2OCO1)OCO3   102% (inactive)
2  Cn1c(=O)cc(SCC(=O)N2CCC3(CC2)OCCO3)c2ccc(Cl)cc21  94.5% (inactive)
3          CC(C)CC12CN3CCN(CC(C3)/C1=N/O)C2   101% (inactive)
4                            NCCc1ccc(O)cc1   112% (inactive)
5  O=C(CN1C(=O)CN=C(c2ccccc2)c2ccccc21)NCc1ccco1   100% (inactive)
6         COc1ccccc1N1CCN(Cc2c(F)cccc2F)CC1  88.5% (inactive)
7  O=C1CC(c2ccccc2)CC(O)=C1C=NCCN1CCN(C(=O)Cc2ccccc2)CC1 (centres undefined)    97% (inactive)
8      C=CCn1c(O)c(C(C)=NCCCO)c(=O)[nH]c1=O   114% (inactive)
